- Condition details: in acetonitrile, 318.15 K
Readout label: solubility (mole fraction)
Number only, no unit.

Enquiry: Item CCc1nc(N)nc(N)c1-c1ccc(Cl)cc1 has what recorded solubility (mole fraction)?
Return: 0.000765

* * *

- Condition details: in n-butanol, 283.15 K
Readout label: solubility (mole fraction)
Please give only the number in your answer, with no unit.

Enquiry: Suppose we examine the compound CCc1nc(N)nc(N)c1-c1ccc(Cl)cc1 ; what solubility (mole fraction) value has been reported?
Return: 0.000993

* * *

- Condition details: in isopropanol, 298.15 K
Readout label: solubility (mole fraction)
Give only the figure.

Enquiry: Looking for the measured solubility (mole fraction) of CCc1nc(N)nc(N)c1-c1ccc(Cl)cc1 , can you help?
Return: 0.000709

* * *

- Condition details: in ethanol, 308.15 K
Readout label: solubility (mole fraction)
Quick one: just the number, no unit, thanks!

Enquiry: What value of solubility (mole fraction) has been reported for the following compound? CCc1nc(N)nc(N)c1-c1ccc(Cl)cc1
Return: 0.00181

* * *

- Condition details: in isopropyl acetate, 308.15 K
Readout label: solubility (mole fraction)
Just the number, please, no unit attached.

Enquiry: solubility (mole fraction) lookup needed for CCc1nc(N)nc(N)c1-c1ccc(Cl)cc1 , thanks.
Return: 0.00185

* * *

- Condition details: in n-butanol, 298.15 K
Readout label: solubility (mole fraction)
Write the number on its own, no unit after it.

Enquiry: Need solubility (mole fraction) of CCc1nc(N)nc(N)c1-c1ccc(Cl)cc1 , thanks.
Return: 0.00164

* * *

- Condition details: in ethyl acetate, 303.15 K
Readout label: solubility (mole fraction)

Enquiry: Dear colleague, I am looking for the recorded solubility (mole fraction) of the following molecule: CCc1nc(N)nc(N)c1-c1ccc(Cl)cc1
Return: 0.00246

* * *

- Condition details: in n-propanol, 293.15 K
Readout label: solubility (mole fraction)
Lab note: write the figure by itself, no unit.

Enquiry: If you can, please state the reported solubility (mole fraction) value of CCc1nc(N)nc(N)c1-c1ccc(Cl)cc1 .
Return: 0.00135

* * *

- Condition details: in isopropanol, 288.15 K
Readout label: solubility (mole fraction)

Enquiry: Could you share which solubility (mole fraction) value was measured for CCc1nc(N)nc(N)c1-c1ccc(Cl)cc1 ?
Return: 0.000456

* * *

- Condition details: in acetonitrile, 303.15 K
Readout label: solubility (mole fraction)
// response body must contain only the number

Enquiry: Recorded solubility (mole fraction) for CCc1nc(N)nc(N)c1-c1ccc(Cl)cc1 , please?
Return: 0.000383

* * *

- Condition details: in methanol, 288.15 K
Readout label: solubility (mole fraction)

Enquiry: Please give the measured solubility (mole fraction) for this compound: CCc1nc(N)nc(N)c1-c1ccc(Cl)cc1
Return: 0.00131

* * *

- Condition details: in ethyl acetate, 318.15 K
Readout label: solubility (mole fraction)
Please state the value as a number alone, without comment.

Enquiry: Reported solubility (mole fraction) for CCc1nc(N)nc(N)c1-c1ccc(Cl)cc1 : what is it?
Return: 0.00389

* * *

- Condition details: in acetone, 278.15 K
Readout label: solubility (mole fraction)
# output: bare number, no unit

Enquiry: Quick one: solubility (mole fraction) for CCc1nc(N)nc(N)c1-c1ccc(Cl)cc1 ?
Return: 0.0011

* * *

- Condition details: in n-butanol, 308.15 K
Readout label: solubility (mole fraction)
Lab note: jot down the number only; don't add units.

Enquiry: Look at this compound and give its reported solubility (mole fraction). CCc1nc(N)nc(N)c1-c1ccc(Cl)cc1
Return: 0.00227

* * *

- Condition details: in isobutanol, 298.15 K
Readout label: solubility (mole fraction)
Give a plain numeric answer without units written out.

Enquiry: Query (compound): CCc1nc(N)nc(N)c1-c1ccc(Cl)cc1 ; field requested: solubility (mole fraction)
Return: 0.0014

* * *

- Condition details: in isopropanol, 313.15 K
Readout label: solubility (mole fraction)
# respond with the number and nothing more

Enquiry: Look at this compound and give its reported solubility (mole fraction). CCc1nc(N)nc(N)c1-c1ccc(Cl)cc1
Return: 0.00125

* * *

- Condition details: in isopropanol, 308.15 K
Readout label: solubility (mole fraction)
The response must contain the number and no unit.

Enquiry: What does the record list as solubility (mole fraction) for CCc1nc(N)nc(N)c1-c1ccc(Cl)cc1 ?
Return: 0.00104

* * *

- Condition details: in isopropanol, 283.15 K
Readout label: solubility (mole fraction)
No unit in the answer, only the number.

Enquiry: Look up solubility (mole fraction) for this molecule: CCc1nc(N)nc(N)c1-c1ccc(Cl)cc1
Return: 0.000323

* * *

- Condition details: in n-propanol, 303.15 K
Readout label: solubility (mole fraction)
Would you mind answering with just the numeric figure?

Enquiry: Requested field: solubility (mole fraction). Item: CCc1nc(N)nc(N)c1-c1ccc(Cl)cc1
Return: 0.00179

* * *

- Condition details: in acetonitrile, 308.15 K
Readout label: solubility (mole fraction)
Please reply with the number alone, leaving off any unit.

Enquiry: What value of measured solubility (mole fraction) is listed for CCc1nc(N)nc(N)c1-c1ccc(Cl)cc1 ?
Return: 0.000469

* * *

- Condition details: in isobutanol, 308.15 K
Readout label: solubility (mole fraction)
Number, no unit, nothing else.

Enquiry: Requested field: solubility (mole fraction). Item: CCc1nc(N)nc(N)c1-c1ccc(Cl)cc1
Return: 0.00198

* * *

- Condition details: in sec-butanol, 313.15 K
Readout label: solubility (mole fraction)
// no unit string in output, number only

Enquiry: Give its solubility (mole fraction) value. Item: CCc1nc(N)nc(N)c1-c1ccc(Cl)cc1
Return: 0.00198

* * *

- Condition details: in acetone, 308.15 K
Readout label: solubility (mole fraction)
Give the figure only, with no unit attached.

Enquiry: Quick check: solubility (mole fraction) of CCc1nc(N)nc(N)c1-c1ccc(Cl)cc1 ?
Return: 0.00241

* * *

- Condition details: in ethyl acetate, 288.15 K
Readout label: solubility (mole fraction)

Enquiry: Requested read-out: solubility (mole fraction). Entry: CCc1nc(N)nc(N)c1-c1ccc(Cl)cc1
Return: 0.0017

* * *

- Condition details: in sec-butanol, 288.15 K
Readout label: solubility (mole fraction)
Just the number, please, no unit attached.

Enquiry: What does the data say about its solubility (mole fraction)? Entry: CCc1nc(N)nc(N)c1-c1ccc(Cl)cc1
Return: 0.000662

* * *

- Condition details: in n-butanol, 318.15 K
Readout label: solubility (mole fraction)

Enquiry: Which solubility (mole fraction) value belongs to CCc1nc(N)nc(N)c1-c1ccc(Cl)cc1 ?
Return: 0.00317

* * *

- Condition details: in ethanol, 293.15 K
Readout label: solubility (mole fraction)
Could you respond with only the numeric value?

Enquiry: # solubility (mole fraction) lookup, item CCc1nc(N)nc(N)c1-c1ccc(Cl)cc1
Return: 0.00109

* * *

- Condition details: in isobutanol, 288.15 K
Readout label: solubility (mole fraction)

Enquiry: Give its solubility (mole fraction) value. Item: CCc1nc(N)nc(N)c1-c1ccc(Cl)cc1
Return: 0.0011

* * *

- Condition details: in ethyl acetate, 298.15 K
Readout label: solubility (mole fraction)
// no unit, no text: just the number

Enquiry: Any idea what its solubility (mole fraction) is? The molecule is CCc1nc(N)nc(N)c1-c1ccc(Cl)cc1
Return: 0.00218

* * *

- Condition details: in isobutanol, 283.15 K
Readout label: solubility (mole fraction)

Enquiry: Which solubility (mole fraction) is reported for this compound? CCc1nc(N)nc(N)c1-c1ccc(Cl)cc1
Return: 0.000904

* * *

- Condition details: in n-propyl acetate, 278.15 K
Readout label: solubility (mole fraction)
Format: numeric value only, no unit, no commentary.

Enquiry: Entry under review: CCc1nc(N)nc(N)c1-c1ccc(Cl)cc1 . Reported solubility (mole fraction)?
Return: 0.000822

* * *

- Condition details: in acetonitrile, 293.15 K
Readout label: solubility (mole fraction)
Respond with the number and no other words.

Enquiry: Which solubility (mole fraction) is listed for CCc1nc(N)nc(N)c1-c1ccc(Cl)cc1 ?
Return: 0.000198

* * *

- Condition details: in isopropyl acetate, 293.15 K
Readout label: solubility (mole fraction)
Give your answer as a number; write no unit.

Enquiry: Given the compound CCc1nc(N)nc(N)c1-c1ccc(Cl)cc1 , what is its reported solubility (mole fraction)?
Return: 0.00107

* * *

- Condition details: in acetone, 318.15 K
Readout label: solubility (mole fraction)
Reply briefly: the number, and no unit.

Enquiry: Requested field: solubility (mole fraction). Item: CCc1nc(N)nc(N)c1-c1ccc(Cl)cc1
Return: 0.0033

* * *

- Condition details: in methanol, 313.15 K
Readout label: solubility (mole fraction)
Kindly provide the number alone.

Enquiry: For the molecule CCc1nc(N)nc(N)c1-c1ccc(Cl)cc1 , what solubility (mole fraction) is on record?
Return: 0.00278

* * *

- Condition details: in ethyl acetate, 308.15 K
Readout label: solubility (mole fraction)
Number only, please.

Enquiry: Would you mind telling me what solubility (mole fraction) value was observed for CCc1nc(N)nc(N)c1-c1ccc(Cl)cc1 ?
Return: 0.0029
